Values were extracted from paper PMC2756588.

Target: T1, Hof1, Q05080
T1 sequence (Q05080 590-669, looked up): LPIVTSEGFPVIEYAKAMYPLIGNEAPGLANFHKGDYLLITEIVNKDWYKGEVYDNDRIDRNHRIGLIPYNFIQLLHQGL
Test: SPOT array
Conditions: median of control spots 4086
Field: SPOT intensity. Provide a value for each of the binders that follow.
One number for each entry.

The cases that follow already have their SPOT intensity on record.
INSERT INTO results (binder, parameter, value_reported) VALUES
  ('HKVLRPFLLRRLKKD', 'SPOT intensity', 0),
  ('RTIRKLPLMSLSEYF', 'SPOT intensity', 20),
  ('QNTPPLPPKPKSPHL', 'SPOT intensity', 1320),
  ('GTIARPLFLVVLFFI', 'SPOT intensity', 0),
  ('DRIRMFIRFPKFLLE', 'SPOT intensity', 21),
  ('SAPDIPPRSPNRNAH', 'SPOT intensity', 0);

Exercise: Dear colleague, please send me the reported SPOT intensity for `FPGKKSPRLPHRNKK` when you can.
Solution: 1
